Relative activity values, listed per item
- Tested on: Felis catus
- test name: Evaluated for its relative defibrillating activity in male cats 10 min after injection at concentration 1 mg/Kg
- Assay type: functional

Some molecules with known Relative activity results, for comparison:
{"columns": ["molecule", "Relative activity"],
 "data": [
  ["CNCCCN1c2ccccc2CCc2ccccc21 [DESIPRAMINE]", "25%"],
  ["CC(C)NC[C@H](O)CN1c2ccccc2CCc2ccccc21.Cl", "100%"],
  ["CC(C)NC[C@@H](O)CN1c2ccccc2CCc2ccccc21.Cl", "50%"]
]}

Just so you know, measured Relative activity for CCC(C)NCCC(=O)N1c2ccccc2CCc2ccccc21.Cl (stereo unspecified) came out at 0%

Value of Relative activity reported for the molecule Cl.O=C(CCNCc1ccccc1)N1c2ccccc2CCc2ccccc21 is 0%

response.value for CNCCC(=O)N1c2ccccc2NC(=O)c2ccccc21.Cl (field: Relative activity) = 0%
